Hey, just so you know, these numbers are from PubChem BioAssay (NCI).

Test system: MDA-MB-468 breast
Assay: NCI tumour cell line growth inhibition, 48 h
Consider the following compounds and their measured TGI readings.

Some entries whose results are on file:
compound: N#Cc1cccc(C(=O)c2cnn(-c3ccc(F)cc3)c2N)c1
subject.of.test: MDA-MB-468 breast
result.value: > 25 µM
//
compound: CSc1ccc(-c2cc(-c3ccc(NC(=O)CCCN4CCCC4)cc3)nc(-c3ccc(NC(=O)CCCN4CCCC4)cc3)c2)cc1
subject.of.test: MDA-MB-468 breast
result.value: 3.03 µM
//
compound: COc1ccc(C2=CC(c3cc(OC)c(OC)c(OC)c3)NC(=O)N2)cc1OC (stereo not given)
subject.of.test: MDA-MB-468 breast
result.value: 15.1 µM
//
compound: CCN(CC)c1ccc(N=C2C=C(C(=O)Nc3ccc(S(C)(=O)=O)cc3)C(=O)c3ccccc32)c(C)c1
subject.of.test: MDA-MB-468 breast
result.value: > 100 µM

As a next step, examine the compound that follows.
Reported TGI for MDA-MB-468 breast, given CN(C)c1ccc(C(=O)c2ccc(N(C)C)c(N)c2)cc1N ?
4.72 µM
